B1: TPR t1 (parent)
chain: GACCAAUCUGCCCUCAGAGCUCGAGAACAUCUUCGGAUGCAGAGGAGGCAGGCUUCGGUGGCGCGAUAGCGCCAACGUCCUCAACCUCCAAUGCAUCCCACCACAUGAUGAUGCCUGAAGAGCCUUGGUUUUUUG

Variants of: B1
Experiment: polymerase ribozyme fitness, log enrichment relative to wild type (log ratio); higher = more active; in vitro selection for triplet polymerase activity
Would you mind telling me the reported polymerase ribozyme fitness (log ratio) of each entry?
Give bare numbers.

sequence.entry	polymerase ribozyme fitness (log ratio)
GACCAAUCUGCUCUCAGAGCUCGAGAACAUCUUCGGAUACAGAGGAGGCAGGCUUAGGUGGCGCGAUAGCGCCAACGUCCUCAACCUCCAAUGCAUCCCACCACAUGAUGAUGCCUGAAGAGCCUUGGUUUUUUG [C12U G39A C56A]	-0.34
GACCAAUCUGCCCUCAGAGCUCGAGAACAUCUUCGGAUGCAGAGGAGGCAGGCUUCGGUGGCGCGAUAGCGCCAACGUCCUCAACCUCCAAUGCAUCCCACCACAUGAUGAUGCCUGAACAGCCUUGGUUUUUUU [G120C G135U]	-0.76
GACCAAUCUGCCCUCAGAGCUCGAGAACAUCUUCGGAUGCAGAGGAGGCAGGCUUCGGUGUCGCGAUAGCGCCAACGUCCUCUACCUCCGAUGCAUCCCACCACAUGAUGAUGCCUGAAGAGCCUUGGUUUUUUG [G61U A83U A90G]	0.371

Go through the list and state polymerase ribozyme fitness (log ratio) for each entry.
1. GACCAAUCUGCCCUCAGAGCUCGAGAACAUCUUCGGAUGCAGAGGAGGCAGGCUUCGGUGGCGCGAUAGCGUCAACGUCCUCAACCUCCAAAGCAUCCCACCACAUGAUGAUGCCUGAAGAGCCUUGGUUUUUUG [C72U U92A]
2. GACCAAUCUGCCCUCAGAGCUCGAGAACAUCUUCGGAUGCAGAGGAGGCAGGCUUUGGUGGCGCGAUAACGCCAACGUCCUCAACCUCCAAUGCAUCCCACCACAUGAUGAUUCCUGAAGAGGCUUGGUGUUUUG [C56U G69A G113U C123G U130G]

1. -3.15
2. -6.22

Go through the list and state polymerase ribozyme fitness (log ratio) for each entry.
1. GACCUAUCUGCCCUCAGAGCUCGAGAACAUCUUCGGAUGCAGAGGAGGCAGGCUGCGGUGGCGCGAUAGCGCCAACGUCCUCAACCUCCAAUGCUUCCCACCACAUGAUGAUGCCUGAAGAGCCUUGGGUUUUUG [A5U U55G A95U U129G]
2. GACCAAUCUGCCCUCAGAGCUCGAGAACAUCUUCGGAUGCAGAGGAGGCAGGUUUCGGUGGCGCGAGAGCGCCAACGUCCUCAACCUCCAAUGCAUCCCACCACAUGAUGAUGCCUGAAGAGCGUUGGUUUUUUG [C53U U67G C124G]
3. GACCAAUCUGCCCUCAGAGCUCGAGUACAUCUUCGGAUGCAGAGGAGGCCGGCUUAGGUGGCGCGAUAGCGCCAACGUCCUCAACCUCCAAUGCAUCCCACCACAUGAUGAUGCCUGAAGAGCAUUGGUUUUUUG [A26U A50C C56A C124A]
4. GACCAAUCUGCCCUCAGAGCUCGAGAACAUCUUCGGAUGCAGAGGAGGCUGGCUUCGAUGGCGCGAUAGCGCCAACGUCCUCAACCUUCAAUGCAUCCCACCACAUGAUGAUGCCUGAAGAGCCUUGGUUUUUUG [A50U G58A C88U]
5. GACCAAUCUGCCCUCCGAGCUCGAGAACAUCUUCGGAUGCAGAGGAGGCAGGCUUCGGUGGCGCGAUAGCGCCAACGUCCUCAACCUCCAAUGCAUCCCACCACAUGAUGAUGCGUGAAGAGCCUUGGUUUUUUG [A16C C115G]
6. GACCAAUCCGCCCUCAGAACUCGAGAACAUCUUCGGAUGCAGAGGAGGCAGGCUUCGGUGGCGCGAUAGCGCCAACGUCCUCAACCUCCAAUGCAUCCCACCACAUGAUGAUGCCUGAAGAGCCUUGGUUUUUUG [U9C G19A]

-1.03
-7.17
-2.3
-2.22
-3.37
-1.95
